Items are presented alongside their recorded binding signal.
Target: T1, RBFOX1 RRM RbFoxmut (Fox-RRM*) (Homo sapiens, UniProt Q9NWB1 109-208, R118D;E147R;N151S;E152T)
T1 sequence: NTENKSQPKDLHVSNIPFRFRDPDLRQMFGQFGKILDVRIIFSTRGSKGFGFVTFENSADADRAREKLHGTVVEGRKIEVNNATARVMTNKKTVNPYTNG
Experiment: EMSA; HiTS-Eq, 1 nM pool, 10 min; buffer printed only for the single-RNA assays: 10 mM Tris pH 7.5, 150 mM NaCl, 3.4 mM EDTA, 0.001% NP-40, 30 C
Conditions: tags: His6 N-terminal (pET28a); label: 5' 32P
Whole data set: some 16,000 sequences, median “ka relative to ugcaugu” near 0.096, cut for the highest 2% near 0.35. The entries come from a sample that favours the highest values as a whole.
VALUE_KIND: binding signal

INSERT INTO results (binder, observed_result) VALUES
  ('GAAAGGG (DNA:RNA) RNA: GGGAGACCGGAAUUCAGAUUGUCCGAAAGGGUUAAAUCCCGUCGUAGCCACCA DNA 1: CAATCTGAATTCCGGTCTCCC DNA 2: TGGTGGCTACGACGGGATT', '0.0436 KA relative to UGCAUGU'),
  ('AUGCAGA (DNA:RNA) RNA: GGGAGACCGGAAUUCAGAUUGUCCAUGCAGAUUAAAUCCCGUCGUAGCCACCA DNA 1: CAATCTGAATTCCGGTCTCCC DNA 2: TGGTGGCTACGACGGGATT', '0.125 KA relative to UGCAUGU'),
  ('AUGCAUG (DNA:RNA) RNA: GGGAGACCGGAAUUCAGAUUGUCCAUGCAUGUUAAAUCCCGUCGUAGCCACCA DNA 1: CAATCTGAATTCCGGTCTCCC DNA 2: TGGTGGCTACGACGGGATT', '0.951 KA relative to UGCAUGU'),
  ('AUCCAUC (DNA:RNA) RNA: GGGAGACCGGAAUUCAGAUUGUCCAUCCAUCUUAAAUCCCGUCGUAGCCACCA DNA 1: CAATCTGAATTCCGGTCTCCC DNA 2: TGGTGGCTACGACGGGATT', '0.1 KA relative to UGCAUGU');
